Biological target: UniProt:P35498
Experiment: Sodium Influx Assay (Flux), NaV1.1;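 note: channels co-expressed with human β1 subunit and held open by modulators, cells exposed to compounds for one hour at room temperature, IC50 from percent inhibition of influx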
Format: cell-based
Conditions: Trex HEK293 cells, ANG2 dye, inactivated state
Where a name gives a salt, the structure may show the parent alone.
PROPERTY: pIC50
Please note pIC50 is a logarithmic value: minus log10 of concentration in mol/L. Answer with that number alone.

O=S(=O)(Nc1cscn1)c1c(F)cc(NC2(c3ccccc3)CC2)cc1F ... 4.76

Moving on to the next compound.
Query: Given the entry CC1(C)CCN1Cc1c(F)cccc1CNc1cc(F)c(S(=O)(=O)Nc2cscn2)c(F)c1 [Example 198, formate] , report its measured pIC50.
Response: 4.59
